Recorded refractive index, one value per entry.
# protocol_details: refractive index (Na D-line) (dimensionless)
# assay_conditions: 298.15 K; 101.33 kPa; Liquid; Standard Abbe refractometry
measure_name: refractive index

>>> observed_measurement("CN1CCCC1=O")
1.4687
>>> observed_measurement("CCOC(=O)C(C)O (racemic) [DL-ethyl lactate]")
1.41076
>>> observed_measurement("CCC(C)=O")
1.37662
>>> observed_measurement("Cc1ccccc1")
1.49299
